# EC50 of peptide listing for each entry below
Subject Of Test: T1, MAGE-A1 peptide on HLA-A*02:01 (human)
T1 peptide: KVLEYVIKV
Protocol Description: JKR9 reporter + peptide-loaded T2, 16 h; full-length, on cells
Kindly answer with a numeric value in nM, unit omitted.

ht27M1166 (TCR, V domains shown) Valpha: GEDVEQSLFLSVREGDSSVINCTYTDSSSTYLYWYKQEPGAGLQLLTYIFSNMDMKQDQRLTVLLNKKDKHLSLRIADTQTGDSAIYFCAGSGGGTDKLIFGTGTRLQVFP Vbeta: GAVVSQHPSWVICKSGTSVKIECRSLDFQATTMFWYRQFPKQSLMLMATSNEGSKATYEQGVEKDKFLINHASLTLSTLTVTSAHPEDSSFYICQAREPGQGPYEQYFGPGTRLTVT
355

Let us examine a further case.
*Q* Find the recorded EC50 of peptide belonging to ht27M1398 (TCR, V domains shown) Valpha: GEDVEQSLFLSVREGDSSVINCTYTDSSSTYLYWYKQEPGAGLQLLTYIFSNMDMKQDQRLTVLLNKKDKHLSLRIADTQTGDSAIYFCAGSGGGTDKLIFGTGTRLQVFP Vbeta: GAVVSQHPSWVICKSGTSVKIECRSLDFQATTMFWYRQFPKQSLMLMATTNLPSKATYEQGVEKDKFLINHASLTLSTLTVTSAHPEDSSFYICSAREPGQGPYEQYFGPGTRLTVT and report it.
*A* 52.8
